# kon listing for each entry below
- Assayed Target: T1, Histidine-tagged human CD3e protein (human, UniProt P07766 23-126)
- T1 construct: also called hCD3e-His; not shown: His tag
- T1 sequence (P07766 23-126 limits assumed): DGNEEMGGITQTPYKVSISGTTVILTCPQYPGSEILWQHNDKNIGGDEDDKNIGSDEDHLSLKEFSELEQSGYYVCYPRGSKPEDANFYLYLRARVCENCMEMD
- Assay Info: SPR (Biacore), human CD3e
Could you give me the number in M⁻¹ s⁻¹? Just the number is fine.

Determine its reported kon: 1B1-H1K1-IgG1-LALA (antibody, V domains shown, Humanized; human IgG1 with LALA mutations; also called H1K1 (humanized 1B1)) VH: QVQLVQSGAEVKKPGASVKVSCKASGYTFTSYWMHWVRQAPGQGLEWIGNIYPDSGTTNYGEKFKTRVTLTVDTSTSTAYMELSSLRSEDTAVYYCTRDTSGQYYFDYWGQGTLVTVSS VL: DIVMTQSPDSLAVSAGERATMNCKSSQSLLNSRTRKNYLAWYQHKPGQSPKLLIYWASTRESGVPDRFSGSGSGTDFTLTISSLQAEDVAVYYCVQSFSLRAFGGGTKVEIK 438000

Determine its reported kon: 1B1-H1K2-IgG1-LALA (antibody, V domains shown, Humanized; human IgG1 with LALA mutations; also called H1K2 (humanized 1B1)) VH: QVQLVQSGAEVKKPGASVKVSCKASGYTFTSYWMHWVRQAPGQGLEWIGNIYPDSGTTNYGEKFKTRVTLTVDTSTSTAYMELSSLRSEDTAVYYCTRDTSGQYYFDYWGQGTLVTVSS VL: DIVMTQSPDSLAVSAGERVTMNCKSSQSLLNSRTRKNYLAWYQHKPGQSPKLLIYWASTRESGVPDRFSGSGSGTDFTLTISSLQAEDVAVYYCVQSFSLRAFGGGTKVEIK 558000

Determine its reported kon: 1B1-H2K2-IgG1-LALA (antibody, V domains shown, Humanized; human IgG1 with LALA mutations; also called H2K2 (humanized 1B1)) VH: QVQLVQSGAEVKKPGASVKLSCKASGYTFTSYWMHWVRQAPGQGLEWIGNIYPDSGTTNYGEKFKTRVTLTVDTSTSTAYMELSSLRSEDTAVYYCTRDTSGQYYFDYWGQGTLVTVSS VL: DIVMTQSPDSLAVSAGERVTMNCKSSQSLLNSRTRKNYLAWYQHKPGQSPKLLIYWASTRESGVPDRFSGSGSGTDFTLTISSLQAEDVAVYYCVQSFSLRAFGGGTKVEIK 535000

Determine its reported kon: 1B1-H2K1-IgG1-LALA (antibody, V domains shown, Humanized; human IgG1 with LALA mutations; also called H2K1 (humanized 1B1)) VH: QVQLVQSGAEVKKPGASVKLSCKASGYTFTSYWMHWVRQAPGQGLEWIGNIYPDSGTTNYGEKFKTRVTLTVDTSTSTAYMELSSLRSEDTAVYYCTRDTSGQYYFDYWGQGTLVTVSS VL: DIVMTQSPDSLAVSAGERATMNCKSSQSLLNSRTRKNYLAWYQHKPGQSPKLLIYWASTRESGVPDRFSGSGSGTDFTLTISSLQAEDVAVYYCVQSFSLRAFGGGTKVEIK 579000

Determine its reported kon: 1B1-H3K1-IgG1-LALA (antibody, V domains shown, Humanized; human IgG1 with LALA mutations; also called H3K1 (humanized 1B1)) VH: QVQLVQSGAEVKKPGASVKLSCKASGYTFTSYWMHWVRQRHGQGLEWIGNIYPDSGTTNYGEKFKTRVTLTVDTSTSTAYMELSSLRSEDTAVYYCTRDTSGQYYFDYWGQGTLVTVSS VL: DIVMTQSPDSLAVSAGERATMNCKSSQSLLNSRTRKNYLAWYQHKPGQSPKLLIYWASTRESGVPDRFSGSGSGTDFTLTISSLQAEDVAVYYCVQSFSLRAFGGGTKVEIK 665000
